log10 IC50 values by entry
- TARGET ENTITY: HLA-DR DRB1*0301 (DR3) (Homo sapiens, UniProt P01903+P01911, A100K/A102G/A103R/A169T/F55Y/I96L/K41T/L162R/M171V/P40S/Q125H/Q178H/Q39Y/R42S/S66N/T106N/T262R/W38E/Y61H)
- Sequence (P01903 26-254 limits assumed, other chains not shown): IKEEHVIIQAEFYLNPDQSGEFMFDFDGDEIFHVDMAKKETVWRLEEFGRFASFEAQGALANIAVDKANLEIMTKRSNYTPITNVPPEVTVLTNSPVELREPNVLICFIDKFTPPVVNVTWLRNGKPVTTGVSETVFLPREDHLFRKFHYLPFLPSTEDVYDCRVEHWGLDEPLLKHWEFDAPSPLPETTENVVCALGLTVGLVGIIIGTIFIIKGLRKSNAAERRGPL
- PROTOCOL SUMMARY: biochemical
- Assay type: binding
No end group written: not given here.
Annotation: log10 of IC50, µM basis.

Here are 5 sequences together with their reported answers.
   biopolymer_sequence      metric  readout_value
0      RQDILDLWVYHTQGY  log10 IC50           1.99
1      YGRILHYLKAKEDSH  log10 IC50           1.63
2      GAPLGGAARALAAGV  log10 IC50           1.37
3      LQQLFLSTLSFVCPW  log10 IC50           0.31
4      WAGLLLDTRTLEVQS  log10 IC50          -1.66

Reported log10 IC50, sequence AKTFLRTLVRGVPEY : ____
1.73

TTVLGKLSQELHKLQ , same question.
1.97

Thanks! And RLFDNASLRAHRLHQ ?
-1.01

Could you do the same for VGGVYALPRRGPRLGV , please?
2.54

Thanks! And SEVYDFAFADLTVVY ?
0.48

Same for RPGLLGASVLGLDDI
1.55

What about LFRVYSNFLRGKLKL ?
0.79

Subsequent entry: LRVVQQLLMGALTVT
1.34
